test system: BT549 cells; experiment: Cell number/viability by Cell Titer Fluor after siRNA transfection; type: cell-based; conditions: Homo sapiens, BT-549; BT549, control siRNA, doxorubicin 72 h; read-out: Control siRNA 95% CI KSO
pIC50: −log10 of the molar value.
readoutName: pIC50

stdin: State, in one line, measured pIC50 of `COc1cccc2c1C(=O)c1c(O)c3c(c(O)c1C2=O)C[C@@](O)(C(=O)CO)C[C@@H]3O[C@H]1C[C@H](N)[C@H](O)[C@H](C)O1`
stdout: 6.42 to 6.78
